Target: RARβ (Homo sapiens, UniProt P10826)
Construct: gal4 (fusion partner); expressed in transfected cells; host or cells: COS-7
Sequence (P10826 183-417 limits assumed, species assumed): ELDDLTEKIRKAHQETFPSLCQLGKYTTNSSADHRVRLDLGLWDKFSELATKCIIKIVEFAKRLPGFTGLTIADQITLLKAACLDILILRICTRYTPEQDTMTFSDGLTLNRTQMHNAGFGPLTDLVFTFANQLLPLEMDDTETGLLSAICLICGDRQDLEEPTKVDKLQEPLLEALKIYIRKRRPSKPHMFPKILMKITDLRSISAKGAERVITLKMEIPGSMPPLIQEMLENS
Assay: Transactivation assay for RAR beta (gal4-RAR fusion, luciferase reporter, COS-7 cells)
Format: cell-based
Conditions: ratio of test compound EC50 to that of atRA; inactive = no agonist action at the highest concentration tested
RARβ activity ratio: recorded values
RESULT_TYPE: RARβ activity ratio

INSERT INTO measurements (compound, assayed_target, result_type, result_modifier, meas_value) VALUES
  ('Cc1cc(NC(=O)c2cc(Cl)c(OC(C)C)c(OC(C)C)c2)ccc1C(=O)O [AAA-051]', 'RARβ (Homo sapiens, UniProt P10826)', 'RARβ activity ratio', '=', 43),
  ('O=C(O)c1ccc(NC(=O)c2cc(Cl)c(OCc3ccccc3)c(Cl)c2)cc1 [AAA-005]', 'RARβ (Homo sapiens, UniProt P10826)', 'RARβ activity ratio', '=', 3570),
  ('CC(C)(C)Oc1cc(C(=O)Nc2ccc(C(=O)O)cc2)cc(Cl)c1OC(C)(C)C [AAA-048]', 'RARβ (Homo sapiens, UniProt P10826)', 'RARβ activity ratio', '=', 38),
  ('CCOc1c(Cl)cc(C(=O)Nc2ccc(C(=O)O)c(C)c2)cc1OCC1CC1 [AAA-097]', 'RARβ (Homo sapiens, UniProt P10826)', 'RARβ activity ratio', '=', 151),
  ('COc1c(Cl)cc(C(=O)Nc2ccc(C(=O)O)cn2)cc1C(F)(F)F [AAA-065]', 'RARβ (Homo sapiens, UniProt P10826)', 'RARβ activity ratio', '=', 140),
  ('CC(C)(C)Oc1cc(C(=O)Nc2ccc(C(=O)O)cc2)cc(OC(C)(C)C)c1OC(C)(C)C [AAA-060]', 'RARβ (Homo sapiens, UniProt P10826)', 'RARβ activity ratio', '=', 2267),
  ('Cc1cc(NC(=O)c2cc(Cl)c(OC(C)(C)C)c(OC(C)(C)C)c2)ccc1C(=O)O [AAA-049]', 'RARβ (Homo sapiens, UniProt P10826)', 'RARβ activity ratio', '=', 8460),
  ('CCOc1c(OC(C)C)cc(C(=O)Nc2ccc(C(=O)O)c(F)c2)cc1OC(C)C [AAA-064]', 'RARβ (Homo sapiens, UniProt P10826)', 'RARβ activity ratio', '>', 3500),
  ('CCOc1c(Cl)cc(C(=O)Nc2ccc(C(=O)O)c(F)c2)cc1Cl [AAA-007]', 'RARβ (Homo sapiens, UniProt P10826)', 'RARβ activity ratio', '=', 2010),
  ('CCOc1c(Cl)cc(C(=O)Nc2ccc(C(=O)O)cc2)cc1OC [AAA-084]', 'RARβ (Homo sapiens, UniProt P10826)', 'RARβ activity ratio', '=', 6087),
  ('CC(C)Oc1cc(C(=O)Nc2ccc(C(=O)O)cc2)cc(OC(C)C)c1F [AAA-119]', 'RARβ (Homo sapiens, UniProt P10826)', 'RARβ activity ratio', '=', 5000),
  ('COc1c(Cl)cc(C(=O)Nc2ccc(C(=O)O)c(C)c2)cc1OC1CCC1 [AAA-099]', 'RARβ (Homo sapiens, UniProt P10826)', 'RARβ activity ratio', '=', 655),
  ('Cc1cc(NC(=O)c2cc(Cl)c(OC(C)(C)C)c(Cl)c2)ccc1C(=O)O [AAA-056]', 'RARβ (Homo sapiens, UniProt P10826)', 'RARβ activity ratio', '>', 770),
  ('COC(=O)c1ccc(NC(=O)c2cc(Cl)c(OC3CCCC3)c(Cl)c2)cc1 [AAA-002]', 'RARβ (Homo sapiens, UniProt P10826)', 'RARβ activity ratio', '=', 2900),
  ('CCOc1c(Cl)cc(C(=O)Nc2ccc(C(=O)O)c(C(F)(F)F)c2)cc1Cl [AAA-033]', 'RARβ (Homo sapiens, UniProt P10826)', 'RARβ activity ratio', '=', 19),
  ('O=C(O)c1ccc(NC(=O)c2cc(Cl)c(OC3CCCC3)c(OC3CCCC3)c2)cc1 [AAA-044]', 'RARβ (Homo sapiens, UniProt P10826)', 'RARβ activity ratio', '=', 55),
  ('O=C(O)c1ccc(NC(=O)c2cc(Cl)c(OC3CCCCC3)c(OC3CCCCC3)c2)cc1 [AAA-047]', 'RARβ (Homo sapiens, UniProt P10826)', 'RARβ activity ratio', '=', 22),
  ('CCOc1c(Cl)cc(NC(=O)c2ccc(C(=O)O)cc2)cc1Cl [AAA-013]', 'RARβ (Homo sapiens, UniProt P10826)', 'RARβ activity ratio', '=', 355);
